test: chemical genetic growth profiling, strain panel (AID 1159580);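 note: tested at 20 µM; growth read once vehicle control cultures reached saturation at 30 °C; 1 = growth at the plate median or of vehicle wells; lower values mean less growth of the strain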; conditions: S. cerevisiae deletion strains, growth OD, locus YDR226W, strain ADK1, active compounds read low
The campaign covered roughly 5,500 compounds. About 2,000 (36%) were called active. About 18% were inconclusive and are not listed. Some of the results follow.
Answer each item with its documented normalized growth.
Answer with a bare number; do not write a unit.

Exercise: If you can, please state the reported normalized growth value of O=c1c(Sc2ccc(Cl)cc2)c(Sc2ccc(Cl)cc2)c1=O .
Solution: 0.971

Exercise: Same for Cc1cc(C(=O)Nc2ccc(Cl)cc2)nn1C(C)(C)C
Solution: 0.987

Exercise: Same for COc1cc(NC(=S)NC(=O)c2ccccc2)c(OC)cc1Cl
Solution: 0.996

Exercise: Same for O=C1C(=O)N(CN2CCc3c([nH]c4ccccc34)C2C(F)(F)F)c2ccc(F)cc21 (stereo unspecified)
Solution: 0.98

Exercise: Same for O=C(N/C=C/c1ccsc1)Nc1cc(C(F)(F)F)cc(C(F)(F)F)c1
Solution: 0.98

Exercise: Same for CC(C)(C)CN/C(C#N)=C(/C#N)NCc1cccc(Cl)c1
Solution: 0.973

Exercise: Same for Cc1c(Cc2ccc(F)cc2)c(=O)oc2cc(O)ccc12
Solution: 0.987

Exercise: Same for Cc1ccc2nc(-c3ccc(Cl)cc3)cn2c1
Solution: 0.959

Exercise: Same for OC1(C(F)(F)F)CC(C23CC4CC(CC(C4)C2)C3)=NN1 (stereo unspecified)
Solution: 0.859

Exercise: Same for Cc1ccc(-c2csc(-c3cccnc3)n2)c(C)c1
Solution: 0.964

Exercise: Same for Cc1ccc(Sc2c(Sc3ccc(C)cc3)c(=O)c2=O)cc1
Solution: 0.968

====

assay: chemical genetic growth profiling, strain panel (AID 1159580);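 note: tested at 20 µM; growth read once vehicle control cultures reached saturation at 30 °C; 1 = growth at the plate median or of vehicle wells; lower values mean less growth of the strain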; conditions: S. cerevisiae deletion strains, growth OD, locus YNR030W, strain Alg12
Out of some 5,500 compounds screened, about 2,000 (36%) were called active. Inconclusive results (about 18%) are left out. Rule as the data show it: active = normalized growth mostly below about 0.91 (no sharp cut-off); inconclusive = no clear call, values can overlap the other calls; inactive = mostly above about 0.92. Some of the results follow.
The reply should be one of these categories: T = active, F = inactive

Exercise: Given COc1ccc(NC(=O)c2cc(C(F)(F)F)cc(C(F)(F)F)c2)cn1 , state the outcome it received in this test.
Solution: F

Exercise: Same for CCOC(=O)C(=CNc1ccccc1N1CCOCC1)C(=O)OCC
Solution: F

Exercise: Same for CCOC(=O)c1[nH]c(Cc2[nH]c(C(=O)OCC)c(C)c2C)c(C)c1C
Solution: F

Exercise: Same for CC(C)(C)C(=O)Nc1ccc(F)cc1
Solution: F

Exercise: Same for COc1cc(C(F)(F)F)cc(C(F)(F)F)c1C(=O)Nc1cc(C(F)(F)F)cc(C(F)(F)F)c1
Solution: F

Exercise: Same for COc1ccc(S(=O)(=O)Nc2ccccc2Oc2ccc(Cl)cc2Cl)cc1OC
Solution: F

Exercise: Same for CC(C)(C)c1ccc(NC(=O)Cc2cc(F)cc(F)c2)cc1
Solution: F

Exercise: Same for O=C1c2cccc3c([N+](=O)[O-])ccc(c23)C(=O)N1Cc1ccco1
Solution: T

Exercise: Same for CCOC(=O)C(=CNNC(=O)c1ccccc1-n1cccc1)C(=O)OCC
Solution: F

====

test: chemical genetic growth profiling, strain panel (AID 1159580);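 note: tested at 20 µM; growth read once vehicle control cultures reached saturation at 30 °C; 1 = growth at the plate median or of vehicle wells; lower values mean less growth of the strain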; conditions: S. cerevisiae deletion strains, growth OD, locus YDR150W, strain NUM1
Hit rate of the full screen: of about 5,500 compounds, about 2,000 (36%) were called active. About 18% were inconclusive and are not listed. Rule as the data show it: active = normalized growth mostly below about 0.91 (no sharp cut-off); inconclusive = no clear call, values can overlap the other calls; inactive = mostly above about 0.92. Some of the results follow.
The reply should be one of these categories: Y for active, N for inactive

Exercise: Given NCC1CCC(C(=O)O)CC1 (stereo unspecified) , state the outcome it received in this test.
Solution: N

Exercise: Same for COc1cc2c(cc1OC)C1C(=O)c3c(OC)cc4c(c3OC1CO2)CCC(C)(C)O4 (stereo unspecified)
Solution: N

Exercise: Same for CC(Oc1ccccc1)C(=O)N[C@@H]1C(=O)N2[C@@H]1SC(C)(C)[C@@H]2C(=O)O (stereo partly specified)
Solution: N

Exercise: Same for CCOC(=O)CSC(=S)NCc1ccc(C)cc1
Solution: Y

Exercise: Same for O=C(O)C1=CCCN(CCON=C(c2ccccc2)c2ccccc2)C1
Solution: N

Exercise: Same for c1ccc2sc(C3(N4CCCCC4)CCCCC3)cc2c1
Solution: N
